# TARGET OR TEST SYSTEM: T1, IFN-αF (human, UniProt P01568 24-189)
# T1 construct: also called IFN-α21; alpha F
# T1 chain: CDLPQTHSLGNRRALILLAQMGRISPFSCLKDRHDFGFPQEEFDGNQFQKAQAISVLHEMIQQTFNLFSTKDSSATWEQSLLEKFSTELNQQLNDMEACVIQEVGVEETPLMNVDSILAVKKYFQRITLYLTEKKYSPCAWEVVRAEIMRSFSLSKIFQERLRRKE
# EXPERIMENT NOTES: ProteOn, one antigen concentration
MEASURED ENDPOINT: pKd
Notebook: values listed as pKd are -log10 of the concentration (mol/L).

Use these answered entries as a reference point.
Input line: Return reported pKd. Input binder: IFWM3310 (antibody, V domains shown, VH IFWH591, VL IFWL1007; converted mAb; also called IFWB3045) VH: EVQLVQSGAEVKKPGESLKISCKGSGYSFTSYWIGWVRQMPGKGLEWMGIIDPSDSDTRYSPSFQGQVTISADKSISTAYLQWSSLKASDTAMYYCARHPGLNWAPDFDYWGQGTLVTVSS VL: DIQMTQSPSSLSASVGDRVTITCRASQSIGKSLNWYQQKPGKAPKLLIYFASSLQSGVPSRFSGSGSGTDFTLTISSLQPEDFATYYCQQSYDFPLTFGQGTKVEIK
Output line: 10.40

Input line: Return reported pKd. Input binder: IFWM3332 (antibody, V domains shown, VH IFWH591, VL IFWL1074; converted mAb; also called IFWB3067) VH: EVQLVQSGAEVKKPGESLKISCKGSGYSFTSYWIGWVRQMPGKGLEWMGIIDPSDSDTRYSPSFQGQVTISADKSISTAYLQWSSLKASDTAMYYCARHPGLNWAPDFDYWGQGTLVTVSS VL: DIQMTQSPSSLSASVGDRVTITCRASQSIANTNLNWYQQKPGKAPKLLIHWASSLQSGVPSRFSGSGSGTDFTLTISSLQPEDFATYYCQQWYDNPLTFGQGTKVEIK
Output line: 10.27

Proceed to the following item.
Input line: Return reported pKd. Input binder: IFWM3328 (antibody, V domains shown, VH IFWH591, VL IFWL1064; converted mAb; also called IFWB3063) VH: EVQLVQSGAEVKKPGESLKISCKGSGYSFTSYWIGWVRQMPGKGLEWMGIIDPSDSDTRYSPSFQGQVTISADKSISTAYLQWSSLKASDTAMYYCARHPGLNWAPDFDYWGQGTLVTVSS VL: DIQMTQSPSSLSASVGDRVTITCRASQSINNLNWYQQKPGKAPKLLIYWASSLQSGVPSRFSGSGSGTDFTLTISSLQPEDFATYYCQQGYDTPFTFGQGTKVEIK
Output line: 10.04
